Please find below IC50 measurements for Cytochrome P450 3A4 (Homo sapiens, UniProt P08684), combined from several publications.

As a guide, the following entries are already answered.
[
  {
    "MOLECULE": "Clc1ccc2c(c1)N=C(N1CCNCC1)c1ccccc1C2",
    "PROPERTY LABEL": "IC50",
    "RECORDED MEASUREMENT": "~4 µM"
  },
  {
    "MOLECULE": "COCCN1C[C@@H](n2ccc(F)c2)[C@H](NC(=O)Nc2c(C)c(-c3cnc(C4(F)COC4)nc3)nn2-c2ccccc2)C1",
    "PROPERTY LABEL": "IC50",
    "RECORDED MEASUREMENT": "> 50 µM"
  },
  {
    "MOLECULE": "C[C@]1(c2cc(NC(=O)c3ccc(F)cn3)ccc2F)N=C(N)SCC12CC(F)(F)C2",
    "PROPERTY LABEL": "IC50",
    "RECORDED MEASUREMENT": "≥ 10 µM"
  },
  {
    "MOLECULE": "CCOc1cc2c(cc1OC)-c1c/c(=N\\c3c(C)cc(C)cc3C)n(CCNC(=O)c3c(O)nnn3C)c(=O)n1CC2",
    "PROPERTY LABEL": "IC50",
    "RECORDED MEASUREMENT": "50 µM"
  },
  {
    "MOLECULE": "O=C(NCc1ccncc1)c1ccc(B2C=CC=CN2)cc1",
    "PROPERTY LABEL": "IC50",
    "RECORDED MEASUREMENT": "8.6 µM"
  },
  {
    "MOLECULE": "COc1c(C(=O)/C=C/c2cccnc2)c(O)c(OC)c2occc12",
    "PROPERTY LABEL": "IC50",
    "RECORDED MEASUREMENT": "3 µM"
  },
  {
    "MOLECULE": "CCCCN(C(=O)Nc1cc(C(N)=O)c(F)cc1F)C1CCN(Cc2ccc(Oc3ccc(C(=O)N(C)C)cc3)nc2C)CC1",
    "PROPERTY LABEL": "IC50",
    "RECORDED MEASUREMENT": "≥ 30 µM"
  },
  {
    "MOLECULE": "C[C@@H](c1ccc(-c2ccc([S+](C)[O-])nc2)cc1)N1CC[C@](CC(C)(C)O)(c2ccccc2)OC1=O (stereo partly shown)",
    "PROPERTY LABEL": "IC50",
    "RECORDED MEASUREMENT": "> 50 µM"
  },
  {
    "MOLECULE": "C[C@@H](c1ccccc1-c1ccc(F)cc1)n1cncc1C(=O)N1CC[C@@H](N2CCC(O)CC2)[C@@H](F)C1",
    "PROPERTY LABEL": "IC50",
    "RECORDED MEASUREMENT": "0.005 µM"
  },
  {
    "MOLECULE": "CO[C@H]1[C@@H](CF)OC(N)=N[C@]1(C)c1cc(NC(=O)c2ccc(C#N)cn2)ccc1Cl",
    "PROPERTY LABEL": "IC50",
    "RECORDED MEASUREMENT": "≥ 20 µM"
  }
]

Now consider the entry below.
Prompt: Checklist item: IC50 tested on Cytochrome P450 3A4 (Homo sapiens, UniProt P08684), entry O=C(NC1CCN(Cc2ccccc2)C1)c1ccc(-c2ccccc2)cc1 (stereo not shown) , value?
Response: > 20 µM

----------
The compounds below each have a reported IC50 tested on Cytochrome P450 3A4 (Homo sapiens, UniProt P08684); the values come from various publications.

Example entries begin here.
[
  {
    "COMPOUND": "CC#CCOc1cnc(C(=O)Nc2ccc(F)c([C@]3(C)C[C@@H](C(F)(F)F)OC(N)=N3)c2)cn1",
    "IC50": "> 50 µM"
  },
  {
    "COMPOUND": "COc1cnc(C(=O)Nc2ccc(F)c([C@@]3(C)N=C(N)O[C@H]4[C@@H]3OCC4(F)F)c2)cn1",
    "IC50": "≥ 20 µM"
  },
  {
    "COMPOUND": "C[C@@H](c1ccccc1-c1ccc(F)c(F)c1F)n1cncc1C(=O)N1CCC2NCCO[C@@H]2C1 (stereo partly drawn)",
    "IC50": "0.0048 µM"
  }
]

Prompt: # input compound: `O=C(Nc1ccc2c(c1)CNCC21CC1)c1cccnc1NCc1ccnc2[nH]ccc12` ; wanted: its IC50
Response: > 20 µM

Prompt: Further, for `Cc1ncc(-c2ccc([C@H](C)N3CC[C@](CC(C)(C)O)(c4ccccc4)OC3=O)cc2)cn1` ?
Response: > 50 µM

Prompt: Further, for `C[C@H]1SC(N)=N[C@](C)(c2cc(NC(=O)c3cnc(OC(F)F)cn3)ccc2F)[C@H]1F` ?
Response: ≥ 20 µM

----------
Listing of pIC50 toward Cytochrome P450 3A4 (Homo sapiens, UniProt P08684), each taken from a published source.
Please treat pIC50 as minus the base-10 logarithm of the molar concentration.

[
  {
    "COMPOUND SMILES": "CCN1CCN(c2ccc(Nc3cc(-n4c(Nc5c(Cl)c(OC)cc(OC)c5Cl)nc5ccccc54)ncn3)cc2)CC1",
    "pIC50": 4.49
  },
  {
    "COMPOUND SMILES": "CN(Cc1ccc(F)cc1)C(=O)N[C@@H](CCN1CCOCC1)C(=O)N[C@H](CC[C@H](Cc1ccccc1)NC(=O)OCc1cncs1)Cc1ccccc1",
    "pIC50": 6.44
  },
  {
    "COMPOUND SMILES": "CC[C@@H](C#N)NC(=O)c1ccc(-c2nc(Nc3cnn(CC#N)c3)ncc2C)cc1",
    "pIC50": 4.67
  }
]

Prompt: Reported pIC50, compound `C[C@@H](c1ccc(-c2cccc(S(C)(=O)=O)n2)cc1)N1CC[C@](CC(C)(C)O)(c2ccccc2)OC1=O` : ____
Response: 4.47

----------
The entries that follow carry IC50 values tested on UniProtKB P08684, drawn from several published reports.

[
  {
    "COMPOUND SMILES": "COc1cc2c(Nc3ccncc3)nc(N3CCC(F)(F)CC3)nc2cc1OCCCN1CCCC1",
    "TGT": "UniProtKB P08684",
    "IC50": "> 100 µM"
  },
  {
    "COMPOUND SMILES": "CN1CCC[C@@H]1COc1cc(NC(=O)c2cccnc2NCc2ccnc3[nH]ccc23)ccc1C(F)(F)F",
    "TGT": "UniProtKB P08684",
    "IC50": "> 20 µM"
  },
  {
    "COMPOUND SMILES": "CC(C)N(C)C(=O)N[C@H](CCN1CCOCC1)C(=O)N[C@H](CC[C@H](Cc1ccccc1)NC(=O)OCc1cncs1)Cc1ccccc1",
    "TGT": "UniProtKB P08684",
    "IC50": "0.26 µM"
  },
  {
    "COMPOUND SMILES": "C[C@H](c1ccc(F)cc1)n1cncc1CN1CCN(S(=O)(=O)c2cnc(N3CCN4C[C@H](O)C[C@H]4C3=O)s2)CC1",
    "TGT": "UniProtKB P08684",
    "IC50": "0.0011 µM"
  },
  {
    "COMPOUND SMILES": "COc1cccc(-c2ccc3nc(NC(=O)NCc4nn[nH]n4)cn3n2)c1",
    "TGT": "UniProtKB P08684",
    "IC50": "> 20 µM"
  },
  {
    "COMPOUND SMILES": "COc1nc(OC)nc(N2CCc3nc(NC(C)=O)sc3C2)n1",
    "TGT": "UniProtKB P08684",
    "IC50": "> 20 µM"
  }
]

Shifting focus to the compound that follows.
Prompt: Could you tell me which IC50 is on file for `CC(C)S(=O)(=O)c1nn(C)cc1Nc1nc(Nc2cc(F)c(C3CCN(C)CC3)cc2OC2CC2)ncc1Cl` ?
Response: > 10 µM

----------
Field IC50: reported value for Cytochrome P450 3A4 (Homo sapiens, UniProt P08684); entries drawn from several documents.

Prompt: Give its IC50 value. Item: OC(Cn1cnnn1)(c1ccc(F)cc1F)C(F)(F)c1ccc(OCc2cccc(F)c2)cn1 (stereo not drawn)
Response: 8.4 µM

Prompt: For `CC(C)[C@@H](CN1CCN(c2cccc(O)c2)[C@@H](C)C1)NC(=O)c1ccc(-c2ccccc2)cc1` then?
Response: > 20 µM

Prompt: Entry `CC(=O)NCC[C@H](NC(=O)N(C)C(C)C)C(=O)N[C@@H](CC[C@@H](Cc1ccccc1)NC(=O)OCc1cncs1)Cc1ccccc1` please
Response: 0.24 µM

----------
The following compounds were reported with IC50 values on Cytochrome P450 3A4 (Homo sapiens) in different studies.

Record excerpt, results attached:
[
  {
    "COMPOUND SMILES": "COc1ccc2[nH]cc(CCNC(=O)c3ccc(B4C=CC=CN4)cc3)c2c1",
    "IC50": "17 µM"
  },
  {
    "COMPOUND SMILES": "COc1ccc(Oc2cc(NCC3CCOCC3)c3ncc(-c4ccc(C(=O)NC5CC5)c(C)c4)n3n2)c(F)c1F",
    "IC50": "≥ 5 µM"
  },
  {
    "COMPOUND SMILES": "C=CC(=O)N1CCN(c2c(C#N)cnc3c(F)c(-c4ccc(F)c5sc(N)nc45)c(Cl)cc23)CC1",
    "IC50": "> 10 µM"
  }
]

Let us move to another entry and its IC50.
Prompt: What does the data say about its IC50? Entry: `CC(C)Oc1ccc(S(=O)(=O)N2CC[C@H](n3nc(CC(=O)O)c4ccc(F)cc43)[C@@H](C)C2)cc1`
Response: > 20 µM
